// reported growth inhibition per item
Assay remarks: NCI Yeast Anticancer Drug Screen. Data for the mlh1 rad18 strain (AID 175)
Condition context: S. cerevisiae mlh1 rad18 strain growth inhibition; at 50.0 µM; stronger effect = higher value
Protocol: Growth inhibition of yeast strains with defined genetic alterations is measured as a screen for potential anti-cancer activity. Selected strains with alterations in DNA damage repair or cell cycle control were exposed to compounds and growth inhibition was measured relative to vehicle treated controls. The strain used in this assay is mlh1 rad18
This is part of a sample that, as a whole, favours compounds with a hit. Of some 79,000 tested, about 15% had one in any assay.
Recorded metric: growth inhibition (%)

Compound	Value units	Recorded result
O=c1[nH]c2ccccc2c(O)c1/C=N/C(=S)NCc1ccccc1	%	-37.2
COC(=O)C1C(O)C(C)C(O)OC1C(C)C(O)C(C)/C=C\C=C(/C)C(=O)Nc1c(C)c(OC(C)=O)c2c(c1O)C(=O)C(C)=C1OCOC(/C(C)=C/C(C)=O)=C12 (stereo unspecified)	%	17.6
C=CCCCC(C#N)c1ccc2c(c1)OCO2 (stereo unspecified)	%	-15.2
Cc1cccc(C)c1NC(=S)N(CCC#N)Cc1ccccc1	%	-11.1
CC1=NC(C(=O)O)C(C)(C)S1 (stereo unspecified)	%	-6
CN(C)c1ccc(/C=c2\sc3nnc(Cc4ccccc4)n3c2=O)cc1	%	1.35
NC(N)=NCCCc1ccccc1	%	-3.55
CCOc1ncc(C(=O)c2ccc(C)cc2)c(OCC)n1	%	-20.4
O=S(=O)(c1ccc(Cl)cc1)N1CCN(S(=O)(=O)c2ccc(Cl)cc2)C1	%	15.6
CCOCCOC(=O)OCCOCC	%	28
O=C1CSC(c2cccc(C(F)(F)F)c2)N1c1nncs1 (stereo unspecified)	%	15.1
CCc1ccc(NC(=S)NC(=O)c2ccccc2OC)cc1	%	3.95
CC(=O)Nc1ccc2c(c1)C(=O)c1ccccc1-2	%	31.4
C=CCSC(=S)NC	%	8.4
O=C(NN=C1c2ccccc2-c2ccccc21)C(F)(F)F	%	21.9
CCC(=O)NCCCCCN1CCCCC1	%	9.05

---

Below is a list of entries, each paired with its recorded growth inhibition value.
Assay remarks: NCI Yeast Anticancer Drug Screen. Data for the mec2-1 strain (AID 157)
Condition context: S. cerevisiae mec2-1 strain, at 50.0 µM, stronger effect = higher value
This is part of a sample that, as a whole, favours compounds with a hit. Of some 79,000 tested, about 15% had one in any assay.
Recorded metric: growth inhibition (%)

> print(dat)
                                    compound    recorded.metric  recorded.result
 1                  CC(=O)Nc1c(Cl)cc(N)cc1Cl  growth inhibition            -23.4
 2  Cc1cc(OC(=O)c2c(C)cc(OC(=O)c3c(C)cc(O)cc3O)cc2O)cc(O)c1C(=O)O  growth inhibition            -44.7
 3       CCNc1ncc2nc(CC(=O)OC)c(=O)n(CC)c2n1  growth inhibition              1.6
 4                CN(C)c1nc(Cl)cc2nc(Cl)cn12  growth inhibition              5.7
 5      O=CNc1cc([N+](=O)[O-])ccc1OCc1ccccc1  growth inhibition              1.6
 6  CCCCCCCCCCNC(=O)C(OC(C)=O)C(OC(C)=O)C(OC(C)=O)C(COC(C)=O)OC(C)=O (stereo not given)  growth inhibition             12.6
 7     COC(=O)Cc1nn2c(nc1=O)sc1ccc3ccccc3c12  growth inhibition            -3.05
 8                    CCCCC(=O)/C=C/c1ccccc1  growth inhibition            -8.15
 9  c1ccc(-c2cc(-c3ccccc3)c(-c3ccccc3)c(-c3ccccc3)c2)cc1  growth inhibition             10.1
10                COC(=O)CCNCCSC(=O)c1ccccc1  growth inhibition             -9.1
11                  CC(=O)O/C1=C\CCCCCCCCCC1  growth inhibition            -27.5
12          O=C1C(=O)c2ccccc2C(O)=C1c1ccccc1  growth inhibition             22.8
13             CSc1nc2ccc(N=Cc3ccccc3O)cc2s1  growth inhibition            -8.25
14     COc1cccc2sc(-n3c(C)nc4ccccc4c3=O)nc12  growth inhibition             12.5
15  O=C(ON=C1c2ccccc2C(Br)C(Br)c2ccccc21)c1cc([N+](=O)[O-])cc([N+](=O)[O-])c1 (stereo not given)  growth inhibition             8.85
16  CC(C)=CC1C(C(=O)SCc2cc3c(cc2Br)OCO3)C1(C)C (stereo not given)  growth inhibition            -6.05
17            CCOc1nc(SCC)nc2c1cnn2-c1ccccc1  growth inhibition            -26.4
18                             O=C1COC(=O)N1  growth inhibition            -22.4
19  C=CCSc1ncnc2c1c(C#N)cn2C1OC(CO)C(O)C1O (stereo not given)  growth inhibition            -21.2
20                           CC(C)=CCNC(N)=O  growth inhibition             -3.8
21                   c1ccc2c(c1)CCc1ccccc1N2  growth inhibition             13.8
22  Cc1ccc(S(=O)(=O)OC2CCC3(C)C(=CCC4C3CCC3(C)C(C(C)CCCC(C)C)CCC43)C2)cc1 (stereo not given)  growth inhibition             26.8
23                     CSc1nnc(CF)c(=O)[nH]1  growth inhibition            -1.35
24  Cc1noc(NS(=O)(=O)c2ccc(NC(=S)/N=C/C(C(=O)c3ccccc3)=C(\O)c3ccccc3)cc2)c1C  growth inhibition             0.55
25                   N#C/C(N)=C(\C#N)NC=NCCO  growth inhibition             7.75
26  COc1nc(NC2OCC(O)C(O)C2O)c(Br)c(=O)n1C (stereo not given)  growth inhibition            -10.4
27  NC(CSCCSCCSCC(N)C(=O)O)C(=O)O (stereo not given)  growth inhibition              0.1
28          CCO/C(O)=C(/C#N)C(=O)NC1=NCCCCC1  growth inhibition             8.25
29  CC1(C)CC2(C)OC3(C)CC(C)(C)OC3(C)OC2(C)O1 (stereo not given)  growth inhibition             6.45
30                       COC(=O)CCSCCC(=O)OC  growth inhibition            -0.15
31  CCOP(=O)(OCC)C(C)(CC)NC1=NC(C(F)(F)F)(C(F)(F)F)NC(=O)N1 (stereo not given)  growth inhibition            -10.2
32  CC1CC/C(=C\c2ccccc2)C(=O)/C1=C/c1ccccc1 (stereo not given)  growth inhibition            -11.1
33  Cc1ccc(-c2cc(-c3ccccc3)c(C#N)c(=O)[nH]2)cc1  growth inhibition              9.4
34                   CCOC(=S)SC(=S)SC(=S)OCC  growth inhibition            -27.1
35                C1CCSCCCCCSCCCCCSCCCCCSCC1  growth inhibition            -7.55
36         C=CCSc1nc2ccc(N3C(=O)CCC3=O)cc2s1  growth inhibition            -11.7
37  CCOC(=O)c1cnc(-n2[nH]c(C)c(CCO)c2=O)[nH]c1=O  growth inhibition            -46.9
38            COC(=O)Nc1cccc(NC(=O)C(=O)O)c1  growth inhibition             3.75
39  CN1c2ccccc2N(C(=O)c2ccccc2)C(CC(=O)O)c2cccn21 (stereo not given)  growth inhibition            -40.5
40  COC1OC2COC(c3ccccc3)OC2C(NC(C)=O)C1OC(C)=O (stereo not given)  growth inhibition             17.7
